Values were extracted from patent US8598193B2.

- Tested on: RSV A2
- Test description: RSV antiviral cytopathic effect (CPE) assay, MTT readout
- Assay type: cell-based
- Condition set: human respiratory syncytial virus, HEp-2, 120 h; RSV A2 in HEp2 cells, CPE assay, MTT, approx. 5 days; read-out: Activity Range (RSV A2 antiviral EC50), compounds of Table 2
Metric: EC50

| Molecule | Result |
| --- | --- |
| O=C1c2ccccc2C2(c3ccc(Cl)cc3)N1CCN2C(=O)c1nsc(Cl)c1Cl (centres unmarked) | 0.25 to 1 µg/mL |

Recorded EC50 of Cc1ccc(CNC(=O)N2CCN3C(=O)c4ccccc4C23c2ccc(C)cc2)cc1 (centres unmarked) , please.
0.25 to 1 µg/mL

Fill blank: measured EC50 of the molecule CCC(=O)N1CCN2C(=O)c3ccccc3C12c1ccc(CC)cc1 (centres unmarked) is ____.
0.25 to 1 µg/mL
